Target: Perilipin-1 (Homo sapiens) + 1-acylglycerol-3-phosphate O-acyltransferase ABHD5 (Homo sapiens) (UniProt O60240+Q8WTS1)
Sequence (O60240 whole entry, looked up): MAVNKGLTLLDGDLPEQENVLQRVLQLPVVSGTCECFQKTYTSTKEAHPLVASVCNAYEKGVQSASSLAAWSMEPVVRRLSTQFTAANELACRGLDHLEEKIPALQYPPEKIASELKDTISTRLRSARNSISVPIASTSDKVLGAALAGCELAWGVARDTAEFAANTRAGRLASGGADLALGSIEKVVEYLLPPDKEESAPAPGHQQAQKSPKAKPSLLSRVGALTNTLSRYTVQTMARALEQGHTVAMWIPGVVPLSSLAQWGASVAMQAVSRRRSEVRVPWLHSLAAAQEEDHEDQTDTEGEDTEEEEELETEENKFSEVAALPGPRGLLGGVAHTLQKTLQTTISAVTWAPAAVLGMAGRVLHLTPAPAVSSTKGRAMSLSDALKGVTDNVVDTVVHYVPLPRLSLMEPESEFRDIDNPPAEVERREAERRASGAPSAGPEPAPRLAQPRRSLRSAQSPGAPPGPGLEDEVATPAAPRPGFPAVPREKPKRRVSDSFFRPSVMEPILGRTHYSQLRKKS
Sequence (Q8WTS1 whole entry, looked up): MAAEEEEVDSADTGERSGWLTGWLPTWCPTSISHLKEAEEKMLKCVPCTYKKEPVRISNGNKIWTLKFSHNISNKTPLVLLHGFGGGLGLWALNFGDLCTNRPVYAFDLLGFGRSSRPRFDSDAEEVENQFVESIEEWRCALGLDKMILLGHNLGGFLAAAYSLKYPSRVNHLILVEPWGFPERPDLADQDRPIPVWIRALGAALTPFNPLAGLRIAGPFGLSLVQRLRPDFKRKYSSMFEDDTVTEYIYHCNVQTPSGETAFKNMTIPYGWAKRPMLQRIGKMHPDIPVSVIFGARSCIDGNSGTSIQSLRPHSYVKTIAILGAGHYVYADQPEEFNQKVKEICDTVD
Assay: ABHD5-PLIN1 interaction inhibitors, pilot screen, cell lysate, split luciferase complementation, luminescence, NIH validation set (AID 493027);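 further: 0% = DMSO wells with the 100% control not disclosed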
Conditions: split G. princeps luciferase complementation, 4 h; at 7.9 µM, hits give high values
In all, about 2,000 compounds went through this assay and about 45 (2%) were called active. This is one part of a sample in which actives are shown more often than they occur.
Reported values of inhibition for individual entries

compound	inhibition / %
COc1cc2c(cc1OC)-c1nnc(C)n1C(C)(C)C2	-2.21
COc1ccccc1C(CCN(Cc1ccccc1)C(C)=O)c1ccco1 (configuration not stated)	9.44
N/C(=N\OC(=O)/C=C/c1ccccc1)c1ccc(Br)cc1	-13
COc1ccc(NC(=O)C2C(=O)N(CCO)C3(C)CC2c2ccccc2O3)cc1 (configuration not stated)	-10.9
O=C(/C=C/c1ccccc1)NC(=O)c1ccccc1O	4.79
CCCC(=O)Nc1ccccc1NC(C)=O	-6.46
O=C(/C=C/Sc1ccccc1)c1ccccc1	81.5
O=C(CCCCCCCC(=O)c1ccccc1)c1ccccc1	-5.61
CC(=O)N(CCC(Cc1ccccc1)c1ccco1)Cc1ccco1 (configuration not stated)	40.8
Cn1cc(/C=C/C(=O)c2ccccc2)c2ccccc21	13.9
O=C(c1ccco1)N(CCC(c1ccccc1)c1ccco1)Cc1ccco1 (configuration not stated)	56.6
O=C(/C=C/c1ccccc1)c1ccccc1	61.4

----------
Overview of reported inhibition across a group of compounds:
Target: Perilipin-1 (Homo sapiens) + 1-acylglycerol-3-phosphate O-acyltransferase ABHD5 (Homo sapiens) (UniProt O60240+Q8WTS1)
Test: ABHD5-PLIN1 interaction inhibitors, pilot screen, cell lysate, split luciferase complementation, luminescence, NIH validation set (AID 493027);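 further: 0% = DMSO wells with the 100% control not disclosed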
Conditions: split G. princeps luciferase complementation, 4 h; at 7.9 µM, hits give high values
Out of some 2,000 compounds screened, about 45 (2%) were called active. What follows is part of a selection rich in actives, with near analogues and random picks from the rest.
quantity.measured: inhibition

compound	quantity.measured	result
CSCCC(NC(C)=O)C(=O)Oc1ccc2c3c(c(=O)oc2c1)CCCC3 (stereo unspecified)	inhibition	4.14% (inactive)
CSCCC(NC(=O)OC(C)(C)C)C(=O)Oc1ccc2c(=O)c(-c3ccc4c(c3)OCCO4)coc2c1 (stereo unspecified)	inhibition	67.4% (active)
O=C(Nc1cccc(Cl)c1)N1CCN2C(=O)c3ccccc3C12c1ccccc1 (stereo unspecified)	inhibition	6.94% (inactive)
COc1cc(=O)n(C)c2ccccc12	inhibition	-0.74% (inactive)
OC(C#CCN1CCCC1)(c1ccccc1)c1cccnc1 (stereo unspecified)	inhibition	0.07% (inactive)
CCOc1ccc2nc(NC(=O)NC3CCCCC3)sc2c1	inhibition	-5.14% (inactive)
CCOc1ccc2ccccc2c1CNc1nnnn1C	inhibition	-8.53% (inactive)
COC(=O)C1=C(C)N(Cc2ccco2)C(=O)/C1=C\c1ccc([N+](=O)[O-])cc1	inhibition	86% (active)
COc1ccc(-c2c(NC(=O)c3ccco3)n(C)c3ccccc3c2=O)cc1	inhibition	-10.8% (inactive)
CC(=O)N[C@@H](CS)C(=O)O	inhibition	-18.8% (inactive)
CSCC[C@H](NC(=O)OC(C)(C)C)C(=O)N1CCC(C(=O)N[C@@H](C)C(=O)O)CC1	inhibition	-2.64% (inactive)
O=P(c1ccccc1)(c1ccccc1)c1nc(-c2ccc(Cl)cc2)oc1N1CCOCC1	inhibition	2.59% (inactive)
CC(=O)c1cccc(NC(=O)N[C@@H](CC(C)C)C(=O)O)c1	inhibition	-3.15% (inactive)
CNS(=O)(=O)c1ccc(C)cc1	inhibition	-13.4% (inactive)
CCCCNC(=O)NS(=O)(=O)c1ccc(C)cc1	inhibition	-10.7% (inactive)
